# System: S. mansoni schistosomulae
# assay.overview: Motility assay on schistosomulae (pixel displacement, relative to DMSO control)
# Type: cell-based, Schistosoma mansoni
# measurement.parameters: Schistosoma mansoni, 120 h; schistosomulae, secondary screen, 24h exposure, read at D5, 1 µM; read-out: Fractional motility
Criterion: activity at 1 µM strictly under -10%. Met: Yes. Not met: No.

# example entries with known answers
[[record]]
compound = "O=C1Cc2cc(CCN3CCN(c4nsc5ccccc45)CC3)c(Cl)cc2N1"
class_assignment = "Yes"

[[record]]
compound = "C=C1C(=O)O[C@H]2[C@H]1CC/C(C)=C/CC[C@@]1(C)O[C@@H]21 [(-)-Parthenolide]"
class_assignment = "Yes"

[[record]]
compound = "CCCCc1oc2ccccc2c1C(=O)c1cc(I)c(OCCN(CC)CC)c(I)c1"
class_assignment = "No"


Field: next compound
Consider `CCN(CC)CCOc1ccc(C(=C(Cl)c2ccccc2)c2ccccc2)cc1` . Does its activity at 1 µM lie strictly below -10%?
No
